- ASSAY_NOTES: recombinant UMI read abundance after kanamycin selection (control-corrected) (log10(CPM+1)); higher = more efficient recombination; extreme values may be limits of the assay; sequences stand for … in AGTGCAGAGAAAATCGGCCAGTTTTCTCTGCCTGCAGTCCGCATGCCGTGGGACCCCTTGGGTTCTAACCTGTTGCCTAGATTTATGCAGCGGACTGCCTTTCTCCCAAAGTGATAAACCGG…AGGTTGGTTTCACT; site = the 11-nt donor;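 note: IS621 bridge recombinase in Escherichia coli cells against a fixed T5 target plasmid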
Response key: TRUE means recombinant UMI read abundance (log10) >= 0.09; FALSE means recombinant UMI read abundance (log10) < 0.09.

Observe how each entry below is paired with its result.
[
  {
    "CHAIN_SEQUENCE": "GTGCATGCATGGACCGGTTTTCCCGGTAATCCGTATTTGTT (site GTGCATGCTAT)",
    "LABEL_VALUE": "TRUE"
  },
  {
    "CHAIN_SEQUENCE": "GACCCATCATGGACCGGTTTTCCCGGTAATCCGTATTTGGA (site GACCCATCTTC)",
    "LABEL_VALUE": "TRUE"
  },
  {
    "CHAIN_SEQUENCE": "CGAGCACCATGGACCGGTTTTCCCGGTAATCCGTATTTGGG (site CGAGTACCTCC)",
    "LABEL_VALUE": "FALSE"
  }
]

// switching to the query sequence
Exam item: Dear colleague, could you confirm whether CTAAAAGCATGGACCGGTTTTCCCGGTAATCCGTATTTGGC (site CTAAAAGCTGC) has recombinant UMI read abundance (log10) at or above 0.09?
Marked response: FALSE
